B1: Caulobacter ParB omega fusion; a variant is named by its letters at X, in order, B8GW30 (parent)
chain: MESVVVGEPGMSEGRRGLGRGLSALLGEVDAAPAQAPGEQLGGSREAPIEILQRNPDQPRRTFREEDLEDLSNSIREKGVLQPILVRPSPDTAGEYQIVAGERAWRAAQRAGLKTVPIMVRELDDLAVLEIGIIENVQRADLNVLEEALSYKVLMEKFERTQENIAQTIGKSXSHVANXMRLLXLPDEVQSYLVSGELTAXHARAIAAAADPVALAKQIIEGGLSVRETEALARKAPNLSAGKSKGGRPPRVKDTDTQALESDLSSVLGLDVSIDHRGSTGTLTITYATLEQLDDLCNRLTRGI

Variants of: B1
experimental.protocol: one-hybrid fitness for binding parS DNA (scaled: cognate 1, non-cognate 0); higher = stronger binding
conditions.used: with parS DNA site
Whole data set: some 81,000 sequences, median “one-hybrid fitness for binding parS DNA” near -0.17, cut for the highest 2% near 0.51. Many of the other results were omitted from the sample, so the highest values are more common in it than they were.

var | one-hybrid fitness for binding parS DNA
HPTI | ≤ 0.2
FVSL | ≤ 0.2
GWLC | ≤ 0.2
